test system: HCC-2998 colon; assay: NCI-60 one-dose screen, 48 h (100 = growth as untreated, 0 = no growth, -100 = all killed); details: 10 µM unless noted
About 83,000 compounds went through this panel and 20% of them were active in at least one assay; those are over-represented in the sample as a whole. Active and inactive are the calls of the source. Rule for the calls: active = growth percent below 10; inactive = the rest.
measuredAttribute: growth

Example results:
>  <compound>
Oc1ccccc1-c1nnc(SCc2ccc(O)c3ncccc23)n1-c1ccccc1

>  <measuredAttribute>
growth

>  <experimentalResult>
29% (inactive)

$$$$
>  <compound>
O=[N+]([O-])c1ccc(-c2nnc(SCc3ccc(O)c4ncccc34)o2)cc1

>  <measuredAttribute>
growth

>  <experimentalResult>
28% (inactive)

$$$$
>  <compound>
Cc1ccc(-c2cc3nc(C(Cl)Cl)nc(-c4ccccc4)n3n2)cc1

>  <measuredAttribute>
growth

>  <experimentalResult>
65.3% (inactive)

$$$$
>  <compound>
CC(C)=CCC[C@](C)(O)[C@H]1CC[C@]2(C)[C@@H]1CC[C@@H]1[C@@]3(C)CCC(NC(=O)c4ccccc4C(=O)O)C(C)(C)[C@@H]3CC[C@]12C (some centres not stated)

>  <measuredAttribute>
growth

>  <experimentalResult>
96.5% (inactive)

$$$$
>  <compound>
O=C1c2c(c3c4cc(Br)ccc4[nH]c3c3ccc4ccccc4c23)C(=O)N1CCN1CCNCC1

>  <measuredAttribute>
growth

>  <experimentalResult>
51.5% (inactive)

$$$$

Please state growth for every compound in the list that follows.
1. C/C(=C(/c1ccc(O)cc1)c1ccc(OCCN2CCCCCC2)cc1)c1ccccc1
2. CS(=O)(=O)c1ccc2c(c1)c1c(n2Cc2ccc(Cl)cc2)CCCC1

Ans:
1: 34.8% (inactive); 2: 85.5% (inactive)

###

Test system: NCI-H522 lung
Assay: NCI-60 one-dose screen, 48 h (100 = growth as untreated, 0 = no growth, -100 = all killed)
Conditions: 10 µM unless noted
Description: Growth inhibition of the NCI-H522 human Non-Small Cell Lung tumor cell line is measured as a screen for anti-cancer activity. Cells are grown in 96 well plates and exposed to the test compound for 48 hours. Compounds are tested at a single concentration, which is 10^-5 M for most compounds. The reported endpoint is percent growth (GI% or GIPRCNT), where numbers from 0 - 100% represent growth inhibition, and numbers from -100% - 0 represent cell death. […]
This is part of a sample that, as a whole, favours compounds with a hit. Of some 83,000 tested, about 20% had one in any assay.
Answer each item with its documented growth.
Give bare numbers, in %.

Study these solved cases before continuing.
>  <substanceSmiles>
Oc1ccc(CSc2nnc(-c3ccc(Br)cc3)o2)c2cccnc12

>  <unitsOfMeasure>
%

>  <growth>
29.4

$$$$
>  <substanceSmiles>
Cn1cc(-c2nnc(N)nc2-c2cn(C)c3ccc(F)cc23)c2cc(F)ccc21

>  <unitsOfMeasure>
%

>  <growth>
73.2

$$$$
>  <substanceSmiles>
Cc1cc(=O)n2nc(-c3c[nH]c4ccccc34)sc2n1

>  <unitsOfMeasure>
%

>  <growth>
90.4

$$$$

Hi! Can you tell me growth for each of these compounds?
1. O=C(c1cccc(F)c1)n1ccc2cc(NC(=S)Nc3cccnc3)ccc21
2. N#C/C(=C\c1ccc(Cl)cc1Cl)C(N)=O

Ans:
[87.1, 93.9]
